Origin of the recorded values: patent US20230120736A1

Assay: Conjugation of anti-CD98 mAbs with Bcl-xL inhibitor synthons (precipitation, DAR, recovery, aggregation)
Conditions: conjugation with synthon CZ, Method E
MEASUREMENT LABEL: % Aggregates by SEC (%)
One number for each entry, in %.

The cases that follow already have their % Aggregates by SEC on record.
| MOLECULE | MEASUREMENT LABEL | READOUT VALUE |
| --- | --- | --- |
| huAb107: "heavy chain variable sequence of huAb107 is provided in SEQ ID NO: 114"; "light chain variable sequence ... in SEQ ID NO: 112" (antibody, V domains shown) VH: EVQLVESGGGLVQPGGSLRLSCAASGFTFSDYTMAWVRQAPGKGLEWVATIIYSGRGTYYRDAVKGRFTISRDNAKNTLYLQMNSLRAEDTAVYYCARQSDDTYYYWGYFDYWGQGTMVTVSS VL: DIVMTQTPLSLPVTPGEPASINCKSSQSLLFSGNQKNYLAWYLQKPGQSPQLLIYWASTRQSGVPDRFSGSGSGTDFTLKISRVEAEDVGIYYCQQYYDVPYTFGQGTKLEIK | % Aggregates by SEC | 1.9 |
| huAb103: "heavy chain variable sequence of huAb103 is provided in SEQ ID NO: 109"; "light chain variable sequence ... in SEQ ID NO: 107" (antibody, V domains shown) VH: EVQLVESGGGLVKPGGSLRLSCATSGFTFIDYYMSWVRQAPGKGLEWLGFIRNKAYGYTTEYSASVKGRFTISRDNSKSILYLQMNSLKTEDTAVYYCTRDRPAWFVYWGQGTLVTVSS VL: DIVMTQTPLSLPVTPGEPASISCKSSQSLLYSSNQKNYLAWYLQKPGQSPQLLIYWASTRESGVPDRFSGSGSGTDFTLKISRVEAEDVGVYYCQQYYSYPYTFGGGTKVEIK | % Aggregates by SEC | 15.9 |
| huAb109: "heavy chain variable sequence of huAb109 is provided in SEQ ID NO: 116"; "light chain variable sequence ... in SEQ ID NO: 117" (antibody, V domains shown) VH: EVQLVESGGGLVQPGGSLRLSCAASGFTFSDYTMAWVRQAPGKGLEWVATIIYDARGTYYRDAVKGRFTISRDNAKNTLYLQMNSLRAEDTAVYYCARQSDDTYYYWGYFDYWGQGTMVTVSS VL: DIVMTQTPLSLPVTPGEPASINCKSSQSLLFSGNQKNYLAWYLQKPGQSPQLLIYWASTRQSGVPDRFSGSGSGTDFTLKISRVEAEDVGIYYCQQYYSSPYTFGQGTKLEIK | % Aggregates by SEC | 2.5 |

Would you kindly share the measured % Aggregates by SEC for huAb101: "heavy chain variable sequence of huAb101 is provided in SEQ ID NO: 106"; "light chain variable sequence ... in SEQ ID NO: 107" (antibody, V domains shown) VH: EVQLVESGGGLVKPGGSLRLSCATSGFTFIDYYMSWVRQAPGKGLEWLGFIRNKANRYTTEYSASVKGRFTISRDNSKSILYLQMNSLKTEDTAVYYCTRDRPAWFVYWGQGTLVTVSS VL: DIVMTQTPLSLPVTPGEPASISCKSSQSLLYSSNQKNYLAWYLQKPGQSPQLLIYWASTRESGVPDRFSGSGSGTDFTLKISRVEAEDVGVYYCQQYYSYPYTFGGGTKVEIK ?
1.8
